target: human JAK1 (a.a. 837-1142) (Homo sapiens); construct: human JAK1 (a.a. 837-1142); His tag (N); made in house; host or cells: insect cells (baculovirus); experiment: In vitro JAK kinase assay (HTRF, phosphorylation of a biotinylated peptide), JAK1; format: biochemical; conditions: method AA1 (90 μM ATP) or AA2 (1000 μM ATP), not stated per value; read-out: JAK1 IC50
Counter-ions that a name gives are not always drawn.
Listed molecules paired with reported log10 IC50
Could you please treat all values as log10 of IC50 in nM?

A selection of reference data follows.
molecule	log10 IC50
O=C(Nc1ccc2cc1CCc1cccc(c1)Nc1ncc(Cl)c(n1)N2)C1CCCN(C(=O)Nc2ccccc2)C1 (stereo not shown) [Example A50, trifluoroacetate]	0.38
N#Cc1cccc(NC(=O)N2CCC(CC(=O)Nc3ccc4cc3CCc3cncc(c3)Nc3ncc(Cl)c(n3)N4)CC2)c1 [Example A142, bis(trifluoroacetate)]	0.38
Cc1cc(C(=O)N2CCN(CC(=O)Nc3ccc4cc3CCc3cccc(c3)Nc3ncc(Cl)c(n3)N4)CC2)no1 [Example A123, bis(trifluoroacetate)]	0.86
CC(C)C(=O)N1CCC(CC(=O)Nc2ccc3cc2CCc2cccc(c2)Nc2ncc(Cl)c(n2)N3)CC1 [Example A89, trifluoroacetate]	0.81
Oc1ccc2cc1Nc1nc(ncc1Cl)Nc1cccc(c1)CC2 [Example A26, trifluoroacetate]	1.56

Inquiry: # return recorded log10 IC50 for entry Cc1cc(C(=O)N2CCC(CC(=O)Nc3ccc4cc3CCc3cncc(c3)Nc3ncc(Cl)c(n3)N4)CC2)n[nH]1 [Example A163, bis(trifluoroacetate)]
Reply text: -0.30

Inquiry: # return recorded log10 IC50 for entry N[C@@H](CO)C(=O)Nc1ccc2cc1CCc1cccc(c1)Nc1ncc(Cl)c(n1)N2 [Example A109, bis(trifluoroacetate)]
Reply text: 0.70

* * *

molecular target: human JAK2 (a.a. 828-1132) (Homo sapiens, UniProt O60674); construct: JAK2 (a.a. 828-1132); His tag (N); made in house; host or cells: insect cells (baculovirus); assay: In vitro JAK kinase assay (HTRF, phosphorylation of a biotinylated peptide), JAK2; type: biochemical; conditions: Table D1
Sequence (O60674 828-1132): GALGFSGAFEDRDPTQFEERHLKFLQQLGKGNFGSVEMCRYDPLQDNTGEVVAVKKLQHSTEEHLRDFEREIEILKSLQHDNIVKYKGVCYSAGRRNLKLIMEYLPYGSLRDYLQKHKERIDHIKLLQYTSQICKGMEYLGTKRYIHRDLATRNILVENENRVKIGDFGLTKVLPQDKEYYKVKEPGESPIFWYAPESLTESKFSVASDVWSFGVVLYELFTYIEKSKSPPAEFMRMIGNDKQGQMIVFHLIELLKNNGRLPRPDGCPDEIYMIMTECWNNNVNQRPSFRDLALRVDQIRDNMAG
Structures can show the parent of a compound that is named as a salt.
Listed molecules paired with reported IC50
Respond numerically; units are nM and should not be typed.

molecule	uom	reported.value
O=C(COc1ccc2cc1CCc1cncc(c1)Nc1ncc(Cl)c(n1)N2)N1CCN(c2cnccn2)CC1 [Example D232, tris(trifluoroacetate)]	nM	160

Inquiry: # return recorded IC50 for entry O=C(Nc1ccc2[nH]ccc2c1)c1cc2cc(c1)OCCSc1cccc(c1)Nc1nc(ncc1Cl)N2 [Example D56, trifluoroacetate]
Reply text: 4.8

Inquiry: # return recorded IC50 for entry NC(=O)N1CCN(c2cc(-c3cc4cc(c3)Nc3ncc(Cl)c(n3)Nc3cccc(c3)OCC4)ccn2)CC1 [Example D39, bis(trifluoroacetate)]
Reply text: 0.5

Inquiry: # return recorded IC50 for entry O=C(Nc1ccccc1)N1CCC(COc2ccc3cc2CCc2cncc(c2)Nc2ncc(Cl)c(n2)N3)CC1 [Example D228, bis(trifluoroacetate)]
Reply text: 371

* * *

target: TYK2 (Homo sapiens); assay: TYK2 kinase inhibition (Table A1); format: biochemical; conditions: Table B1
Structures can show the parent of a compound that is named as a salt.
Listed molecules paired with reported pIC50
Note on units: pIC50 is unitless, being -log10 of a concentration expressed in mol/L.

A selection of reference data follows.
molecule	pIC50
O=C(Nc1ccc2cc1CCc1cncc(c1)Nc1ncc(Cl)c(n1)N2)N1CCN(c2ccccc2)CC1 [Example B292, tris(trifluoroacetate)]	7.00
O=S(=O)(Cc1ccccc1)Nc1ccc2cc1CCc1cccc(c1)Nc1ncc(Cl)c(n1)N2 [Example B147, trifluoroacetate]	8.18
O=C(Nc1ccc2cc1CCc1cccc(c1)Nc1ncc(Cl)c(n1)N2)NC1CC1 [Example B240, trifluoroacetate]	8.40

Inquiry: Look up TYK2 (Homo sapiens) data: pIC50 of Clc1cnc2nc1Nc1cc(cc(CN3CCN(Cc4cc(Br)cs4)CC3)c1)CCc1cccc(c1)N2 [Example B196, tris(trifluoroacetate)] , then report it.
Reply text: 6.95

Inquiry: Look up TYK2 (Homo sapiens) data: pIC50 of O=C(Nc1ccc2cc1CCc1cccc(c1)Nc1ncc(Cl)c(n1)N2)Nc1c(Cl)cccc1Cl [Example B113, trifluoroacetate] , then report it.
Reply text: 7.77

Inquiry: Look up TYK2 (Homo sapiens) data: pIC50 of O=C(Nc1ccc2cc1CCc1cccc(c1)Nc1ncc(Cl)c(n1)N2)NC1CCCCC1 [Example B119, trifluoroacetate] , then report it.
Reply text: 8.01

* * *

target: human JAK1 (a.a. 837-1142) (Homo sapiens, UniProt P23458); construct: human JAK1 (a.a. 837-1142); His tag (N); made in house; host or cells: insect cells (baculovirus); test: In vitro JAK kinase assay (HTRF, phosphorylation of a biotinylated peptide), JAK1; assay type: biochemical; conditions: Table D1; read-out: JAK1 IC50
Sequence (P23458 849-1154): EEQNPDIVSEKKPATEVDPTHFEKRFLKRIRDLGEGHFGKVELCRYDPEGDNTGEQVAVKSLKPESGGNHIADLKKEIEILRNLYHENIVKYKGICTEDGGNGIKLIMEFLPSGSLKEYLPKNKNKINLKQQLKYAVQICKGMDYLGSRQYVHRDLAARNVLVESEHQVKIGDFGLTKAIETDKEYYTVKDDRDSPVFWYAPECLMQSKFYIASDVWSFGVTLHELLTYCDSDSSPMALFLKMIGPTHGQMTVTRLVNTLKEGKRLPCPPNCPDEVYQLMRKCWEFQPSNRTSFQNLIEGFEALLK
Counter-ions that a name gives are not always drawn.
Listed molecules paired with reported IC50
Respond numerically; units are nM and should not be typed.

A selection of reference data follows.
molecule	IC50 [nM]
O=C(CC1CCN(c2nccs2)C1)Nc1ccc2cc1CCc1cncc(c1)Nc1ncc(Cl)c(n1)N2 (stereo not drawn) [Example D154, tris(trifluoroacetate)]	7.8
Cn1ccc(C(=O)N2CC[C@@H](CC(=O)Nc3ccc4cc3CCc3cncc(c3)Nc3ncc(Cl)c(n3)N4)C2)n1 [Example D121, bis(trifluoroacetate)]	75
O=C(C[C@@H]1CCCN(C(=O)c2ccccc2)C1)Nc1ccc2cc1CCc1cccc(c1)Nc1ncc(Cl)c(n1)N2 [Example D202, trifluoroacetate]	22
O=C(C[C@H]1CCN(C(=O)Nc2ccccc2)C1)Nc1ccc2cc1CCc1cncc(c1)Nc1ncc(Cl)c(n1)N2 [Example D97, bis(trifluoroacetate)]	3.3
O=C(CC1CCN(c2nncs2)C1)Nc1ccc2cc1CCc1cncc(c1)Nc1ncc(Cl)c(n1)N2 (stereo not drawn) [Example D155, tris(trifluoroacetate)]	29

Consider the additional molecule presented here.
Inquiry: # return recorded IC50 for entry O=C(OCc1ccccc1)N1CCC(CCNc2ccc3cc2CCc2cncc(c2)Nc2ncc(Cl)c(n2)N3)CC1
Reply text: 13

* * *

target: UniProtKB P29597; assay: TYK2 kinase inhibition (Table A1); type: biochemical; details: Table B1
Listed compounds paired with reported pIC50
Note on units: pIC50 is unitless, being -log10 of a concentration expressed in mol/L.

Inquiry: # return recorded pIC50 for entry CNC(=O)N1CC[C@H](NC(=O)Nc2ccc3cc2CCc2cccc(c2)Nc2ncc(Cl)c(n2)N3)C1
Reply text: 7.59

* * *

biological target: TYK2 (Homo sapiens, UniProt P29597); experiment: TYK2 kinase inhibition (Table A1); format: biochemical
Sequence (P29597 whole entry): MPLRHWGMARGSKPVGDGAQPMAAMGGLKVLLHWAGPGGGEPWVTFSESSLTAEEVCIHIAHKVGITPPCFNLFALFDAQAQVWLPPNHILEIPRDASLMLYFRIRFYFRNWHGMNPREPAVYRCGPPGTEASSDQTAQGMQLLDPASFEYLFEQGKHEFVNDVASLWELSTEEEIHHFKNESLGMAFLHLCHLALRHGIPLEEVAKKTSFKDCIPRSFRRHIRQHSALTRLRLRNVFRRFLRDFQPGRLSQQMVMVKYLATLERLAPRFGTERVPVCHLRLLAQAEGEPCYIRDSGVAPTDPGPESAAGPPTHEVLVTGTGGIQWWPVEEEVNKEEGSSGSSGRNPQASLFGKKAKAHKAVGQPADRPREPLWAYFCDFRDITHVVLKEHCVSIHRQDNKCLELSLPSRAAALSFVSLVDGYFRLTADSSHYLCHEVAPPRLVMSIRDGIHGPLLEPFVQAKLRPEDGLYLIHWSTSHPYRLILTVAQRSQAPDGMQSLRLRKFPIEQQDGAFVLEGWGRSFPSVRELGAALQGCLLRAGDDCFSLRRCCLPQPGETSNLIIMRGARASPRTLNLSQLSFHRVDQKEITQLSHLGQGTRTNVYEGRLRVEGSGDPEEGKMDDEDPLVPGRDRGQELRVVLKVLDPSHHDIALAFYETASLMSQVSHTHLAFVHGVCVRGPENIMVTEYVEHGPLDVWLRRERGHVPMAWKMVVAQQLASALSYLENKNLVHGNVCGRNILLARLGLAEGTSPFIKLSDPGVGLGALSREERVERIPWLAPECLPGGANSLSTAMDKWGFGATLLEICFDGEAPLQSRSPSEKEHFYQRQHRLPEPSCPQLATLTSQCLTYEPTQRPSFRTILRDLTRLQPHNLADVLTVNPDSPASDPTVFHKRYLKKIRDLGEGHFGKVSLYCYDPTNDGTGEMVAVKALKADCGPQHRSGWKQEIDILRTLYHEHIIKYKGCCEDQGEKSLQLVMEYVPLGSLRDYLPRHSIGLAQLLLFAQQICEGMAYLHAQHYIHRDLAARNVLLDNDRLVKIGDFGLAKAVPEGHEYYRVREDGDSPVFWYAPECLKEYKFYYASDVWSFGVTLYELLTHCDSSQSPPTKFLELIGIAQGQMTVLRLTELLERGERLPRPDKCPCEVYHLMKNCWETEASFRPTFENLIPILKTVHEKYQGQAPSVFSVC
assay.readout: pIC50
Note on units: pIC50 is unitless, being -log10 of a concentration expressed in mol/L.

A selection of reference data follows.
compound	reported.value
O=C(CC1CCN(c2nncs2)CC1)Nc1ccc2cc1CCc1cccc(c1)Nc1ncc(Cl)c(n1)N2 [Example A183, bis(trifluoroacetate)]	7.52
NCC(=O)Nc1ccc2cc1CCc1cccc(c1)Nc1ncc(Cl)c(n1)N2 [Example A107, bis(trifluoroacetate)]	8.38

Consider the additional compound presented here.
Inquiry: # return recorded pIC50 for entry CC(C)C(=O)N1CCC(CC(=O)Nc2ccc3cc2CCc2cncc(c2)Nc2ncc(Cl)c(n2)N3)CC1 [Example A103, bis(trifluoroacetate)]
Reply text: 7.82

* * *

target: human JAK2 (a.a. 828-1132) (Homo sapiens); construct: JAK2 (a.a. 828-1132); His tag (N); made in house; host or cells: insect cells (baculovirus); test: In vitro JAK kinase assay (HTRF, phosphorylation of a biotinylated peptide), JAK2; type: biochemical
Counter-ions that a name gives are not always drawn.
// NB: equality with 50 nM counts as false; only IC50 strictly below is true

Here's what some known entries look like.
molecule	cat
O=C1NCc2cccc(c2)Nc2nc(ncc2Cl)Nc2cccc1c2 [Example C5, hydrochloride]	false
Clc1cnc2nc1Nc1cccc(c1)CCc1cccc(n1)N2	false
O=C1Cc2cccc(c2)Nc2ncc(Cl)c(n2)Nc2cccc(c2)N1 [Example C10, trifluoroacetate]	false
O=C(Cc1nnn[nH]1)Nc1ccc2cc1CCc1cccc(c1)Nc1ncc(Cl)c(n1)N2 [Example C31, trifluoroacetate]	true

Inquiry: Problem: For the molecule Cc1cc(C(=O)N2CCC(CC(=O)Nc3ccc4cc3CCc3cccc(c3)Nc3ncc(F)c(n3)N4)CC2)no1 [Example C52, trifluoroacetate] , is IC50 under 50 nM?
Reply text: false

Inquiry: Problem: For the molecule N#Cc1ccccc1S(=O)(=O)N1CCC(COc2ccc3cc2CCc2cncc(c2)Nc2ncc(Cl)c(n2)N3)C1 (stereo not drawn) [Example C57, bis(trifluoroacetate)] , is IC50 under 50 nM?
Reply text: false

Inquiry: Problem: For the molecule Clc1cnc2nc1Nc1ccc(OCC3CCNC3)c(c1)CCc1cncc(c1)N2 (stereo not drawn) [Example C55, trihydrochloride] , is IC50 under 50 nM?
Reply text: false

Inquiry: Problem: For the molecule Cc1nc(C)c(CC(=O)Nc2ccc3cc2CCc2cccc(c2)Nc2ncc(Cl)c(n2)N3)s1 [Example C43, trifluoroacetate] , is IC50 under 50 nM?
Reply text: true

Inquiry: Problem: For the molecule Cc1nc(CC(=O)Nc2ccc3cc2CCc2cccc(c2)Nc2ncc(Cl)c(n2)N3)cs1 [Example C38, trifluoroacetate] , is IC50 under 50 nM?
Reply text: true

Inquiry: Problem: For the molecule O=C(Cc1cccs1)Nc1ccc2cc1CCc1cccc(c1)Nc1ncc(Cl)c(n1)N2 [Example C42, trifluoroacetate] , is IC50 under 50 nM?
Reply text: true

Inquiry: Problem: For the molecule Cc1ccc(C(=O)N2Cc3cccc(c3)Nc3ncc(Cl)c(n3)Nc3cccc2c3)cc1 , is IC50 under 50 nM?
Reply text: false

Inquiry: Problem: For the molecule Cc1cc(CC(=O)Nc2ccc3cc2CCc2cccc(c2)Nc2ncc(Cl)c(n2)N3)on1 [Example C30, trifluoroacetate] , is IC50 under 50 nM?
Reply text: false

Inquiry: Problem: For the molecule Cc1cnc2nc1Nc1ccc(NC(=O)CC3CCN(c4nncs4)CC3)c(c1)CCc1cccc(c1)N2 [Example C53, trifluoroacetate] , is IC50 under 50 nM?
Reply text: false

Inquiry: Problem: For the molecule O=S1(=O)Cc2cccc(c2)Nc2nc(ncc2Cl)Nc2cccc(c2)N1 [Example C8, trifluoroacetate] , is IC50 under 50 nM?
Reply text: false

Inquiry: Problem: For the molecule O=C1Cc2cccc(c2)Nc2nc(ncc2Cl)Nc2cccc(c2)N1 [Example C11, trifluoroacetate] , is IC50 under 50 nM?
Reply text: false
